# measurementNotes: Inhibition of HCV NS5B Cdelta21 RNA polymerase activity assessed as incorporation of [33P]-CTP into heteropolymer RNA template after 150 mins
# Parameters: species or system Hepacivirus hominis
pIC50: −log10 of the molar value.
Measured pIC50, listed per entry.

[
  {
    "entrySmiles": "CS(=O)(=O)Nc1cccc(S(=O)(=O)NC(=O)c2c(-c3ccc[nH]c3=O)c3cc(Cl)ccc3n2Cc2ccccc2F)c1",
    "qual": "=",
    "pIC50": 7.74
  },
  {
    "entrySmiles": "CC(C)S(=O)(=O)NC(=O)c1c(-c2ccc[nH]c2=O)c2cc(Cl)ccc2n1Cc1ccccc1F",
    "qual": "=",
    "pIC50": 7.89
  },
  {
    "entrySmiles": "Nc1cc(Cn2c(C(=O)NS(=O)(=O)c3ccccc3N)c(-c3ccc[nH]c3=O)c3cc(Cl)ccc32)ccn1",
    "qual": "=",
    "pIC50": 7.55
  },
  {
    "entrySmiles": "Nc1cccc(S(=O)(=O)NC(=O)c2c(-c3ccc[nH]c3=O)c3cc(Cl)ccc3n2Cc2ccnc(N)c2)c1",
    "qual": "=",
    "pIC50": 7.44
  },
  {
    "entrySmiles": "CCOC(=O)c1c(-c2ccc[nH]c2=O)c2cc(Cl)ccc2n1Cc1ccnc(N)c1",
    "qual": "<",
    "pIC50": 4.70
  },
  {
    "entrySmiles": "O=C(NS(=O)(=O)CCCCl)c1c(-c2ccc[nH]c2=O)c2cc(Cl)ccc2n1Cc1ccccc1F",
    "qual": "=",
    "pIC50": 8.10
  },
  {
    "entrySmiles": "Nc1cc(Cn2c(C(=O)NS(N)(=O)=O)c(-c3ccc[nH]c3=O)c3cc(Cl)ccc32)ccn1",
    "qual": "=",
    "pIC50": 7.54
  }
]

---

Known pIC50 of a selection of compounds
# measurementNotes: Inhibition of HCV NS5B Cdelta21 RNA polymerase activity assessed as incorporation of [33P]-CTP into heteropolymer RNA template after 150 mins
# Set-up: species or system Hepacivirus hominis
pIC50: −log10 of the molar value.

[
  {
    "entrySmiles": "Nc1cc(Cn2c(C3=NS(=O)(=O)c4ccccc4N3)c(-c3ccc[nH]c3=O)c3cc(Cl)ccc32)ccn1",
    "pIC50": 7.92
  },
  {
    "entrySmiles": "CS(=O)(=O)NC(=O)c1c(-c2ccc[nH]c2=O)c2cc(Cl)ccc2n1Cc1ccnc(N)c1",
    "pIC50": 7.74
  },
  {
    "entrySmiles": "CS(=O)(=O)NCCS(=O)(=O)NC(=O)c1c(-c2ccc[nH]c2=O)c2cc(Cl)ccc2n1Cc1ccccc1F",
    "pIC50": 8.30
  },
  {
    "entrySmiles": "CS(=O)(=O)NC(=O)c1c(-c2c[nH]c(=O)[nH]c2=O)c2cc(Cl)ccc2n1Cc1ccnc(N)c1",
    "pIC50": 7.57
  },
  {
    "entrySmiles": "Cc1cc(F)ccc1S(=O)(=O)NC(=O)c1c(-c2ccc[nH]c2=O)c2cc(Cl)ccc2n1Cc1ccnc(N)c1",
    "pIC50": 7.47
  },
  {
    "entrySmiles": "CS(=O)(=O)NC(=O)c1c(-c2ccc[nH]c2=O)c2cc(Cl)ccc2n1Cc1ccc(F)cc1F",
    "pIC50": 7.39
  },
  {
    "entrySmiles": "COC(=O)c1cccc(S(=O)(=O)NC(=O)c2c(-c3ccc[nH]c3=O)c3cc(Cl)ccc3n2Cc2ccnc(N)c2)c1",
    "pIC50": 7.57
  },
  {
    "entrySmiles": "CS(=O)(=O)NC(=O)c1c(-c2ccc[nH]c2=O)c2cc(C(F)(F)F)ccc2n1Cc1ccccc1F",
    "pIC50": 8.22
  }
]

---

# measurementNotes: Inhibition of HCV NS5B Cdelta21 RNA polymerase activity assessed as incorporation of [33P]-CTP into heteropolymer RNA template after 150 mins
# Design: species or system Hepacivirus hominis
IC50 vs 0.04 µM: less than gives true (1); not less than gives false (0).

[
  {
    "entrySmiles": "Nc1cc(Cn2c(C(=O)NS(=O)(=O)c3ccccc3F)c(-c3ccc[nH]c3=O)c3cc(Cl)ccc32)ccn1",
    "classAssignment": "true (1)"
  },
  {
    "entrySmiles": "Nc1cc(Cn2c(C(=O)NS(=O)(=O)c3cccc(Cl)c3)c(-c3ccc[nH]c3=O)c3cc(Cl)ccc32)ccn1",
    "classAssignment": "false (0)"
  },
  {
    "entrySmiles": "Nc1cc(Cn2c(CC(=O)O)c(-c3ccc[nH]c3=O)c3cc(Cl)ccc32)ccn1",
    "classAssignment": "false (0)"
  },
  {
    "entrySmiles": "Cc1ccc(S(=O)(=O)NC(=O)c2c(-c3ccc[nH]c3=O)c3cc(Cl)ccc3n2Cc2ccnc(N)c2)cc1",
    "classAssignment": "true (1)"
  },
  {
    "entrySmiles": "Nc1cc(Cn2c(C(=O)NS(=O)(=O)c3cc(F)ccc3F)c(-c3ccc[nH]c3=O)c3cc(Cl)ccc32)ccn1",
    "classAssignment": "true (1)"
  },
  {
    "entrySmiles": "CS(=O)(=O)NC(=O)c1c(-c2ccc[nH]c2=O)c2cc(Cl)ccc2n1Cc1ccccc1F",
    "classAssignment": "true (1)"
  },
  {
    "entrySmiles": "COC(=O)c1ccc(S(=O)(=O)NC(=O)c2c(-c3ccc[nH]c3=O)c3cc(Cl)ccc3n2Cc2ccnc(N)c2)cc1",
    "classAssignment": "true (1)"
  },
  {
    "entrySmiles": "CS(=O)(=O)Nc1ccc(S(=O)(=O)NC(=O)c2c(-c3ccc[nH]c3=O)c3cc(Cl)ccc3n2Cc2ccnc(N)c2)cc1",
    "classAssignment": "true (1)"
  },
  {
    "entrySmiles": "Nc1cc(Cn2c(C(=O)NS(=O)(=O)c3ccc(F)cc3F)c(-c3ccc[nH]c3=O)c3cc(Cl)ccc32)ccn1",
    "classAssignment": "false (0)"
  },
  {
    "entrySmiles": "O=c1[nH]cccc1-c1c(-c2nc3ccccc3[nH]2)n(Cc2ccc(F)cc2F)c2ccc(Cl)cc12",
    "classAssignment": "false (0)"
  },
  {
    "entrySmiles": "Nc1cc(Cn2c(C(=O)NS(=O)(=O)c3cccc(S(N)(=O)=O)c3)c(-c3ccc[nH]c3=O)c3cc(Cl)ccc32)ccn1",
    "classAssignment": "true (1)"
  },
  {
    "entrySmiles": "Nc1cc(Cn2c(C(=O)NS(=O)(=O)Cc3ccccc3)c(-c3ccc[nH]c3=O)c3cc(Cl)ccc32)ccn1",
    "classAssignment": "true (1)"
  },
  {
    "entrySmiles": "CS(=O)(=O)NC(=O)c1c(-n2c(=O)[nH]c3cscc3c2=O)c2cc(C(F)(F)F)ccc2n1Cc1ccccc1F",
    "classAssignment": "true (1)"
  },
  {
    "entrySmiles": "CCNS(=O)(=O)c1c(-c2ccc[nH]c2=O)c2cc(Cl)ccc2n1Cc1ccc(F)cc1F",
    "classAssignment": "false (0)"
  },
  {
    "entrySmiles": "N#Cc1c(-c2ccc[nH]c2=O)c2cc(Cl)ccc2n1Cc1ccnc(N)c1",
    "classAssignment": "false (0)"
  },
  {
    "entrySmiles": "Nc1cc(Cn2c(C(=O)NS(=O)(=O)c3cc(F)cc(F)c3)c(-c3ccc[nH]c3=O)c3cc(Cl)ccc32)ccn1",
    "classAssignment": "true (1)"
  }
]

---

# IC50 annotations
# measurementNotes: Inhibition of HCV NS5B Cdelta21 RNA polymerase activity assessed as incorporation of [33P]-CTP into heteropolymer RNA template after 150 mins
# Parameters: species or system Hepacivirus hominis

[
  {
    "entrySmiles": "O=C(NS(=O)(=O)C1CC1)c1c(-c2ccc[nH]c2=O)c2cc(Cl)ccc2n1Cc1ccccc1F",
    "unitsSymbol": "nM",
    "qual": "=",
    "IC50": 5
  },
  {
    "entrySmiles": "CS(=O)(=O)NCc1c(-c2ccc[nH]c2=O)c2cc(Cl)ccc2n1Cc1ccnc(N)c1",
    "unitsSymbol": "nM",
    "qual": ">",
    "IC50": 20000
  },
  {
    "entrySmiles": "Nc1cc(Cn2c(C(=O)NS(=O)(=O)c3ccccc3)c(-c3ccc[nH]c3=O)c3cc(Cl)ccc32)ccn1",
    "unitsSymbol": "nM",
    "qual": "=",
    "IC50": 16
  },
  {
    "entrySmiles": "CC(C)(C)S(=O)(=O)NC(=O)c1c(-c2ccc[nH]c2=O)c2cc(Cl)ccc2n1Cc1ccnc(N)c1",
    "unitsSymbol": "nM",
    "qual": "=",
    "IC50": 31
  },
  {
    "entrySmiles": "Nc1ccc(S(=O)(=O)NC(=O)c2c(-c3ccc[nH]c3=O)c3cc(Cl)ccc3n2Cc2ccnc(N)c2)cc1",
    "unitsSymbol": "nM",
    "qual": "=",
    "IC50": 35
  },
  {
    "entrySmiles": "COc1ccc(S(=O)(=O)NC(=O)c2c(-c3ccc[nH]c3=O)c3cc(Cl)ccc3n2Cc2ccnc(N)c2)cc1",
    "unitsSymbol": "nM",
    "qual": "=",
    "IC50": 22
  },
  {
    "entrySmiles": "N#Cc1ccc(S(=O)(=O)NC(=O)c2c(-c3ccc[nH]c3=O)c3cc(Cl)ccc3n2Cc2ccnc(N)c2)cc1",
    "unitsSymbol": "nM",
    "qual": "=",
    "IC50": 36
  },
  {
    "entrySmiles": "O=C(NS(=O)(=O)C1CCCC1)c1c(-c2ccc[nH]c2=O)c2cc(Cl)ccc2n1Cc1ccccc1F",
    "unitsSymbol": "nM",
    "qual": "=",
    "IC50": 28
  }
]

Values from ChEMBL document CHEMBL1932928
